- target.system: human P2X4 (Homo sapiens, UniProt Q99571)
- assay.info: Human P2X4 HEK Cell FLIPR Assay
- Assay type: cell-based
- settings: HEK293, HEK293 cells, agonist Bz-ATP at EC80; percentage of maximal inhibition; read-out: Human P2X4 HEK Cells (FLIPR Assay) avg Efficacy [%]
- Description: HEK293 cells stably expressing human P2X4 were plated in poly-D-lysine-coated 384-well plates at a seeding density of 30000 cells/well and incubated overnight. P2X4 function was assessed by measuring intracellular calcium changes using the calcium-chelating dye Fluo8-AM (Molecular Devices) on a fluorescent imaging plate reader (FLEX/FLIPR station; Molecular Devices). […] The EC80 value of Bz-ATP was determined each assay day prior to compound profiling. […]
Threshold rule: Emax greater than or equal to 90% is 1; below that, -1.

NS(=O)(=O)c1cc(NC(=O)Cc2ccccc2C(F)F)ccc1-n1cc(F)cn1 [Example 51] : 1
NS(=O)(=O)c1cc(NC(=O)Cc2ccccc2F)cnc1-n1cc(C(F)(F)F)cn1 [Example 381] : -1
CCOc1ncc(-c2ccc(NC(=O)Cc3ccccc3Cl)cc2S(N)(=O)=O)cn1 [Example 309] : 1

Asked: Reported Emax at or above 90%? Cn1nc(C(F)(F)F)cc1-c1ccc(NC(=O)Cc2ccccc2F)cc1S(N)(=O)=O [Example 368]
Given back: 1

Asked: Reported Emax at or above 90%? NS(=O)(=O)c1cc(NC(=O)Cc2ccc(F)cc2Cl)ccc1-c1cnn(C2CC2)c1 [Example 278]
Given back: 1

Asked: Reported Emax at or above 90%? NS(=O)(=O)c1cc(NC(=O)Cc2ccc(C(F)(F)F)cc2Cl)ccc1-c1ccc(Cl)nc1 [Example 474]
Given back: 1

Asked: Reported Emax at or above 90%? NS(=O)(=O)c1cc(NC(=O)Cc2ccccc2Cl)ccc1-c1cnn(C2CCOC2)c1 (centres unmarked) [Example 300]
Given back: 1

Asked: Reported Emax at or above 90%? CC(C)(O)c1cnn(-c2ccc(NC(=O)Cc3ccccc3Cl)cc2S(N)(=O)=O)c1 [Example 238]
Given back: -1

* * *

- target.system: human P2X4 (Homo sapiens)
- assay.info: Human P2X4 HEK Cell FLIPR Assay
- settings: HEK293 cells, agonist Bz-ATP at EC80; individual values listed where some fall outside detection range
- Method: HEK293 cells stably expressing human P2X4 were plated in poly-D-lysine-coated 384-well plates at a seeding density of 30000 cells/well and incubated overnight. P2X4 function was assessed by measuring intracellular calcium changes using the calcium-chelating dye Fluo8-AM (Molecular Devices) on a fluorescent imaging plate reader (FLEX/FLIPR station; Molecular Devices). […] The EC80 value of Bz-ATP was determined each assay day prior to compound profiling. […]
measured.quantity: pIC50
Expect pIC50 as a plain number equal to -log10 of the molar concentration.

Cc1ccc(CC(=O)Nc2ccc(-c3ccc(Cl)nc3)c(S(N)(=O)=O)c2)c(F)c1 : 6.57

Alright, here's another compound for you.
Asked: What value of pIC50 has been reported for the following compound? "NS(=O)(=O)c1cc(NC(=O)Cc2ccccc2Cl)ccc1-c1nnc(C(F)(F)F)o1"
Given back: 6.73

* * *

- target.system: human P2X4 (Homo sapiens)
- assay.info: Human P2X4 HEK Cell FLIPR Assay
- settings: HEK293 cells, agonist Bz-ATP at EC80; individual values listed where some fall outside detection range
measured.quantity: pIC50
Expect pIC50 as a plain number equal to -log10 of the molar concentration.

Some entries whose results are on file:
Cc1c(C#N)cnn1-c1ccc(NC(=O)Cc2ccccc2Cl)cc1S(N)(=O)=O : 7.22
N#Cc1cc(NC(=O)Cc2ccccc2Cl)cc(S(N)(=O)=O)c1-n1cc(C(F)(F)F)cn1 : 6.85
COc1ccccc1CC(=O)Nc1ccc(-n2cnc(C(F)(F)F)n2)c(S(N)(=O)=O)c1 : 6.77

Alright, here's another molecule for you.
Asked: What value of pIC50 has been reported for the following molecule? "NS(=O)(=O)c1cc(NC(=O)Cc2ccccc2Cl)ccc1-n1ncc2cnccc21"
Given back: 8.52

* * *

Emax values by entry
- target.system: human P2X4 (Homo sapiens)
- assay.info: Human P2X4 HEK Cell FLIPR Assay
- Format: cell-based
- settings: HEK293, HEK293 cells, agonist Bz-ATP at EC80; percentage of maximal inhibition; read-out: Human P2X4 HEK Cells (FLIPR Assay) avg Efficacy [%]
Kindly answer with a numeric value in %, unit omitted.

Some entries whose results are on file:
CC(C)(C)c1cnn(-c2ccc(NC(=O)Cc3ccccc3Cl)cc2S(N)(=O)=O)c1 [Example 394] : 86
Cc1cc(-c2ccc(NC(=O)Cc3ccccc3Cl)cc2S(N)(=O)=O)n(C)n1 [Example 351] : 88
NS(=O)(=O)c1cc(NC(=O)Cc2cccc(Cl)c2Cl)ccc1-c1cnn(C(F)F)c1 [Example 229] : 94

Asked: What value of Emax has been reported for the following compound? NS(=O)(=O)c1c(-n2cc(C(F)(F)F)cn2)ccc(NC(=O)Cc2ccccc2Cl)c1C(F)(F)F [Example 531]
Given back: 84

Asked: What value of Emax has been reported for the following compound? NS(=O)(=O)c1cc(NC(=O)Cc2c(F)cccc2Cl)ccc1-n1cc(C(F)(F)F)cn1 [Example 113]
Given back: 86

Asked: What value of Emax has been reported for the following compound? COc1ncc(-c2ccc(NC(=O)Cc3ccccc3Cl)cc2S(N)(=O)=O)cn1 [Example 285]
Given back: 97

Asked: What value of Emax has been reported for the following compound? NS(=O)(=O)c1cc(NC(=O)Cc2c(F)ccc(F)c2Cl)ccc1-n1cc(Cl)cn1 [Example 96]
Given back: 83

Asked: What value of Emax has been reported for the following compound? NS(=O)(=O)c1cc(NC(=O)Cc2cc(Cl)ccc2Cl)ccc1-n1cc(C(F)(F)F)cn1 [Example 136]
Given back: 84

* * *

pIC50 values by entry
- target.system: human P2X4 (Homo sapiens)
- assay.info: Human P2X4 HEK Cell FLIPR Assay
- settings: HEK293 cells, agonist Bz-ATP at EC80; individual values listed where some fall outside detection range
Expect pIC50 as a plain number equal to -log10 of the molar concentration.

Asked: Find pIC50 (human P2X4 (Homo sapiens)) for the entry "NS(=O)(=O)c1cc(NC(=O)Cc2ccccc2F)ccc1-n1cc(Cl)cn1"
Given back: 6.83

Asked: Find pIC50 (human P2X4 (Homo sapiens)) for the entry "COc1ncn(-c2ccc(NC(=O)Cc3ccccc3Cl)cc2S(N)(=O)=O)n1"
Given back: 5.07

Asked: Find pIC50 (human P2X4 (Homo sapiens)) for the entry "NS(=O)(=O)c1cc(NC(=O)Cc2ccc(F)cc2Cl)ccc1-n1cc(Br)cn1"
Given back: 6.89

* * *

- target.system: human P2X4 (Homo sapiens)
- assay.info: Human P2X4 HEK Cell FLIPR Assay
- Assay type: cell-based
- settings: HEK293, HEK293 cells, agonist Bz-ATP at EC80; percentage of maximal inhibition; read-out: Human P2X4 HEK Cells (FLIPR Assay) avg Efficacy [%]
Emax values by entry
Kindly answer with a numeric value in %, unit omitted.

Some entries whose results are on file:
N#Cc1cnn(-c2ccc(NC(=O)Cc3ccc(F)cc3Cl)cc2S(N)(=O)=O)c1 : 90
Cc1nn(C)cc1-c1ccc(NC(=O)Cc2ccccc2F)cc1S(N)(=O)=O : 79

Alright, here's another compound for you.
Asked: What value of Emax has been reported for the following compound? "NS(=O)(=O)c1cc(NC(=O)Cc2ccccc2Cl)ccc1-c1cnn(C2COC2)c1"
Given back: 89

* * *

- target.system: human P2X4 (Homo sapiens, UniProt Q99571)
- Sequence (Q99571 1-388): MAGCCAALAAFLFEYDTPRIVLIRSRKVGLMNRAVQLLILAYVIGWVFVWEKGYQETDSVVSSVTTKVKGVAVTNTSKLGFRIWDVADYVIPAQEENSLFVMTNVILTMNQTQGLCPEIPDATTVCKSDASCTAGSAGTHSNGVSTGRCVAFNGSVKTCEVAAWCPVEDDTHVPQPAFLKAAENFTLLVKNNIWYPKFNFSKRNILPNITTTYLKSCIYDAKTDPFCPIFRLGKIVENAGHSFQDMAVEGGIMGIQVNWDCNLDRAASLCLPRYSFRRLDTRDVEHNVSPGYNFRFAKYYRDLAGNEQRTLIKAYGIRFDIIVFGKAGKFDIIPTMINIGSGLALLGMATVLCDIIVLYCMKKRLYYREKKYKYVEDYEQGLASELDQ
- assay.info: Human P2X4 HEK Cell FLIPR Assay
- Assay type: cell-based
- settings: HEK293 cells, agonist Bz-ATP at EC80; individual values listed where some fall outside detection range
pIC50: −log10 of the molar value.
Threshold rule: pIC50 greater than or equal to 7 is t; below that, f.

Answered cases to consult:
NS(=O)(=O)c1cc(NC(=O)Cc2cc(F)c(F)cc2Cl)ccc1-n1cc(F)cn1 : f
NS(=O)(=O)c1cc(NC(=O)Cc2ccccc2Cl)ccc1-n1cnc(C2CC2)c1 : f
NS(=O)(=O)c1cc(NC(=O)Cc2ccncc2Cl)ccc1-c1cnn(C(F)F)c1 : f
CC(C)(C)n1cc(-c2ccc(NC(=O)Cc3ccccc3F)cc2S(N)(=O)=O)cn1 : t
CN(C(=O)c1cnn(-c2ccc(NC(=O)Cc3ccccc3Cl)cc2S(N)(=O)=O)c1)C1CC1 : t
NS(=O)(=O)c1cc(NC(=O)Cc2cccc(F)c2)ccc1-c1cncc(C(F)(F)F)c1 : f
NS(=O)(=O)c1cc(NC(=O)Cc2ccccc2Cl)ccc1-n1cncn1 : f
CC(C)(O)c1cccc(-c2ccc(NC(=O)Cc3ccccc3Cl)cc2S(N)(=O)=O)c1 : t
NS(=O)(=O)c1cc(NC(=O)Cc2ccccc2F)cnc1-n1cc(F)cn1 : f
COc1ccc(CC(=O)Nc2ccc(-n3ncc(C(F)(F)F)n3)c(S(N)(=O)=O)c2)cc1 : f

Turning now to a further record.
Asked: Reported pIC50 at or above 7? "NC(=O)c1cnn(-c2ccc(NC(=O)Cc3ccccc3Cl)cc2S(N)(=O)=O)c1"
Given back: t
